Hello, the source for this data is ChEMBL document CHEMBL3988442, in case you need it.

# Lookup of reported Percent Effect keyed by entry
Target: Shiga toxin 2 (Escherichia coli O157:H7) (UniProt P09385+P09386)
Assay: E. coli 0.157:H7 Shiga Toxin SOP - stx2 screening assay
Type: functional
Set-up: scale not given: direction of the effect not stated beside the values
Settings: 30 µM
value.kind: Percent Effect (%)

>  <compound>
c1ccc(C2CCCN2Cc2nnnn2C2CC2)cc1 (configuration not stated)

>  <target.entity>
Shiga toxin 2 (Escherichia coli O157:H7) (UniProt P09385+P09386)

>  <unit.label>
%

>  <endpoint.result>
-5.38

$$$$
>  <compound>
O=C(NCCNCC1CNc2ccnn2C1)c1ccc(F)cc1 (configuration not stated)

>  <target.entity>
Shiga toxin 2 (Escherichia coli O157:H7) (UniProt P09385+P09386)

>  <unit.label>
%

>  <endpoint.result>
-25.2

$$$$
>  <compound>
c1ccc(-n2ncc(CNC3CCc4ncnn4C3)n2)cc1 (configuration not stated)

>  <target.entity>
Shiga toxin 2 (Escherichia coli O157:H7) (UniProt P09385+P09386)

>  <unit.label>
%

>  <endpoint.result>
-16.9

$$$$
>  <compound>
c1ccc(N2CCCC3(CCN(Cc4cccs4)C3)C2)nc1 (configuration not stated)

>  <target.entity>
Shiga toxin 2 (Escherichia coli O157:H7) (UniProt P09385+P09386)

>  <unit.label>
%

>  <endpoint.result>
5.58

$$$$
>  <compound>
CCCNC(=O)c1cc2c(c3ccccc3n2C)n1C(=O)N(C)C

>  <target.entity>
Shiga toxin 2 (Escherichia coli O157:H7) (UniProt P09385+P09386)

>  <unit.label>
%

>  <endpoint.result>
-2.9

$$$$
>  <compound>
Cc1noc([C@@]23CCO[C@@H]2CCN(CC2CCOCC2)C3)n1

>  <target.entity>
Shiga toxin 2 (Escherichia coli O157:H7) (UniProt P09385+P09386)

>  <unit.label>
%

>  <endpoint.result>
-16.8

$$$$
>  <compound>
N#Cc1ccc(S(=O)(=O)NC(=O)C2CC2)c(C(F)(F)F)c1

>  <target.entity>
Shiga toxin 2 (Escherichia coli O157:H7) (UniProt P09385+P09386)

>  <unit.label>
%

>  <endpoint.result>
9.71

$$$$
>  <compound>
Cc1ccsc1C(=O)N1C[C@@H]2CN(Cc3ccoc3)CCO[C@@H]2C1

>  <target.entity>
Shiga toxin 2 (Escherichia coli O157:H7) (UniProt P09385+P09386)

>  <unit.label>
%

>  <endpoint.result>
-11.7

$$$$
>  <compound>
Cc1cc(CN2CCN(C(=O)NCc3ccc(C)s3)CC2)no1

>  <target.entity>
Shiga toxin 2 (Escherichia coli O157:H7) (UniProt P09385+P09386)

>  <unit.label>
%

>  <endpoint.result>
0.0703

$$$$
>  <compound>
COc1c(CNCc2cccc(CS(C)(=O)=O)c2)c(C)nn1C

>  <target.entity>
Shiga toxin 2 (Escherichia coli O157:H7) (UniProt P09385+P09386)

>  <unit.label>
%

>  <endpoint.result>
20.4

$$$$
>  <compound>
CCCc1nc(CN2CCCC2Cn2cncn2)cs1 (configuration not stated)

>  <target.entity>
Shiga toxin 2 (Escherichia coli O157:H7) (UniProt P09385+P09386)

>  <unit.label>
%

>  <endpoint.result>
-7.55

$$$$
>  <compound>
c1ccc(Cn2cccn2)c(CNCC2CNc3ccnn3C2)c1 (configuration not stated)

>  <target.entity>
Shiga toxin 2 (Escherichia coli O157:H7) (UniProt P09385+P09386)

>  <unit.label>
%

>  <endpoint.result>
-40.7

$$$$
>  <compound>
CC(C(=O)N1CCc2ccccc2C1)n1cc(Br)cn1 (configuration not stated)

>  <target.entity>
Shiga toxin 2 (Escherichia coli O157:H7) (UniProt P09385+P09386)

>  <unit.label>
%

>  <endpoint.result>
-59.4

$$$$
>  <compound>
O=C(NCc1cncc2c1CCN(Cc1cccs1)C2)C1CC1

>  <target.entity>
Shiga toxin 2 (Escherichia coli O157:H7) (UniProt P09385+P09386)

>  <unit.label>
%

>  <endpoint.result>
-27.9

$$$$
>  <compound>
COCCC(=O)N1CCC(c2noc3nc(C)cc(C(F)(F)F)c23)CC1

>  <target.entity>
Shiga toxin 2 (Escherichia coli O157:H7) (UniProt P09385+P09386)

>  <unit.label>
%

>  <endpoint.result>
8.3

$$$$
>  <compound>
CS(=O)(=O)c1ccc(CNC(=O)N2CCC(c3ccccc3)CC2)cc1

>  <target.entity>
Shiga toxin 2 (Escherichia coli O157:H7) (UniProt P09385+P09386)

>  <unit.label>
%

>  <endpoint.result>
7.64

$$$$
>  <compound>
O=C(NCC(=O)N1CCCCC1)c1ccc(Cl)cc1I

>  <target.entity>
Shiga toxin 2 (Escherichia coli O157:H7) (UniProt P09385+P09386)

>  <unit.label>
%

>  <endpoint.result>
1.85

$$$$
>  <compound>
CCCc1nnsc1C(=O)NCC1CCN(S(C)(=O)=O)CC1

>  <target.entity>
Shiga toxin 2 (Escherichia coli O157:H7) (UniProt P09385+P09386)

>  <unit.label>
%

>  <endpoint.result>
-1.41

$$$$
>  <compound>
Cc1nc(CN2CCCC(NCCc3ccccc3Cl)C2)no1 (configuration not stated)

>  <target.entity>
Shiga toxin 2 (Escherichia coli O157:H7) (UniProt P09385+P09386)

>  <unit.label>
%

>  <endpoint.result>
10.1

$$$$
>  <compound>
COCCN(CCc1ccccc1)Cc1nc2c(cnn2C)c(=O)[nH]1

>  <target.entity>
Shiga toxin 2 (Escherichia coli O157:H7) (UniProt P09385+P09386)

>  <unit.label>
%

>  <endpoint.result>
29.5

$$$$
>  <compound>
COCCOc1ccccc1CNCc1c(C)nn(C)c1N(C)C

>  <target.entity>
Shiga toxin 2 (Escherichia coli O157:H7) (UniProt P09385+P09386)

>  <unit.label>
%

>  <endpoint.result>
23.1

$$$$
>  <compound>
O=C(O)C1(Cc2cc(-c3cccc(F)c3)no2)CCOCC1

>  <target.entity>
Shiga toxin 2 (Escherichia coli O157:H7) (UniProt P09385+P09386)

>  <unit.label>
%

>  <endpoint.result>
9.34

$$$$
>  <compound>
Cc1cc(C)c(OCC(=O)NS(=O)(=O)c2c(C)noc2C)c(C)c1

>  <target.entity>
Shiga toxin 2 (Escherichia coli O157:H7) (UniProt P09385+P09386)

>  <unit.label>
%

>  <endpoint.result>
21.6

$$$$
>  <compound>
Cc1occc1C(=O)NCc1ccc(N2CCCC(C(N)=O)C2)cc1 (configuration not stated)

>  <target.entity>
Shiga toxin 2 (Escherichia coli O157:H7) (UniProt P09385+P09386)

>  <unit.label>
%

>  <endpoint.result>
-14.7

$$$$
>  <compound>
CCSc1ccc(C(=O)Nc2c(C)nn(C(C)C)c2C)cn1

>  <target.entity>
Shiga toxin 2 (Escherichia coli O157:H7) (UniProt P09385+P09386)

>  <unit.label>
%

>  <endpoint.result>
-37.7

$$$$
>  <compound>
CCOc1ccc(Cl)c(C(=O)N2CCN(c3cnccn3)CC2)n1

>  <target.entity>
Shiga toxin 2 (Escherichia coli O157:H7) (UniProt P09385+P09386)

>  <unit.label>
%

>  <endpoint.result>
-46.8

$$$$
>  <compound>
COc1ncccc1NC(=O)NC1CCOc2ccccc21 (configuration not stated)

>  <target.entity>
Shiga toxin 2 (Escherichia coli O157:H7) (UniProt P09385+P09386)

>  <unit.label>
%

>  <endpoint.result>
-5.5

$$$$
>  <compound>
CN1CCCC[C@@H]2[C@H]1[C@@H](c1ccccc1)CCN2C(=O)c1ccccc1

>  <target.entity>
Shiga toxin 2 (Escherichia coli O157:H7) (UniProt P09385+P09386)

>  <unit.label>
%

>  <endpoint.result>
-4.17

$$$$
>  <compound>
COc1cc(C(=O)N(Cc2ccco2)C2CC2)cc2c1OCCO2

>  <target.entity>
Shiga toxin 2 (Escherichia coli O157:H7) (UniProt P09385+P09386)

>  <unit.label>
%

>  <endpoint.result>
-6.37

$$$$
>  <compound>
COc1ccccc1OCCC(=O)N1CCCC1Cn1cc(C)cn1 (configuration not stated)

>  <target.entity>
Shiga toxin 2 (Escherichia coli O157:H7) (UniProt P09385+P09386)

>  <unit.label>
%

>  <endpoint.result>
29.9

$$$$
>  <compound>
Nc1nccc(NCc2cc3n(n2)CCCN(C(=O)C2CCC2)C3)n1

>  <target.entity>
Shiga toxin 2 (Escherichia coli O157:H7) (UniProt P09385+P09386)

>  <unit.label>
%

>  <endpoint.result>
1.54

$$$$
>  <compound>
O=C(CCCc1cn[nH]c1)N1C[C@@H](CN2CCOCC2)[C@@H](CO)C1

>  <target.entity>
Shiga toxin 2 (Escherichia coli O157:H7) (UniProt P09385+P09386)

>  <unit.label>
%

>  <endpoint.result>
-29.7

$$$$
>  <compound>
CC(C)N1CC(C(=O)NCc2ccnc(-n3cccn3)c2)CC1=O (configuration not stated)

>  <target.entity>
Shiga toxin 2 (Escherichia coli O157:H7) (UniProt P09385+P09386)

>  <unit.label>
%

>  <endpoint.result>
-49.1

$$$$
>  <compound>
Cc1ccc(-c2nc(CN3CCOC(c4ccccc4)C3)cs2)o1 (configuration not stated)

>  <target.entity>
Shiga toxin 2 (Escherichia coli O157:H7) (UniProt P09385+P09386)

>  <unit.label>
%

>  <endpoint.result>
13

$$$$
>  <compound>
O=C(c1ccncc1)N1CCC(c2nc(O)cc(-c3ccncc3)n2)C1 (configuration not stated)

>  <target.entity>
Shiga toxin 2 (Escherichia coli O157:H7) (UniProt P09385+P09386)

>  <unit.label>
%

>  <endpoint.result>
1.62

$$$$
>  <compound>
CCc1nnsc1C(=O)N1CCCN(Cc2cnn(C)c2)CC1

>  <target.entity>
Shiga toxin 2 (Escherichia coli O157:H7) (UniProt P09385+P09386)

>  <unit.label>
%

>  <endpoint.result>
7.82

$$$$
>  <compound>
O=S(=O)(C1CC1)N1C[C@H]2CCC[C@@]2(COc2ccccn2)C1

>  <target.entity>
Shiga toxin 2 (Escherichia coli O157:H7) (UniProt P09385+P09386)

>  <unit.label>
%

>  <endpoint.result>
-32.7

$$$$
>  <compound>
COC(=O)c1ccc(N2CCN(C(=O)c3cnn(C)c3)C(C)C2)cc1 (configuration not stated)

>  <target.entity>
Shiga toxin 2 (Escherichia coli O157:H7) (UniProt P09385+P09386)

>  <unit.label>
%

>  <endpoint.result>
-15.2

$$$$
>  <compound>
Cc1ccc(CC(=O)N2CCCCC2c2nc(C)cs2)cn1 (configuration not stated)

>  <target.entity>
Shiga toxin 2 (Escherichia coli O157:H7) (UniProt P09385+P09386)

>  <unit.label>
%

>  <endpoint.result>
1.25

$$$$
>  <compound>
CC(C)c1nc(C2CCCN2CC(=O)N2CCNC2=O)no1 (configuration not stated)

>  <target.entity>
Shiga toxin 2 (Escherichia coli O157:H7) (UniProt P09385+P09386)

>  <unit.label>
%

>  <endpoint.result>
-10.5

$$$$
>  <compound>
CC(C(=O)Nc1cccc(N2CCCCC2)c1)n1cncn1 (configuration not stated)

>  <target.entity>
Shiga toxin 2 (Escherichia coli O157:H7) (UniProt P09385+P09386)

>  <unit.label>
%

>  <endpoint.result>
2.83

$$$$
>  <compound>
Cc1cccc(CC(=O)NCCCOC(C)C)c1

>  <target.entity>
Shiga toxin 2 (Escherichia coli O157:H7) (UniProt P09385+P09386)

>  <unit.label>
%

>  <endpoint.result>
-10.2

$$$$
>  <compound>
Cc1noc(CN2CCN(Cc3cccs3)CC2)n1

>  <target.entity>
Shiga toxin 2 (Escherichia coli O157:H7) (UniProt P09385+P09386)

>  <unit.label>
%

>  <endpoint.result>
1.32

$$$$
>  <compound>
CCOC(=O)N1CCN(c2nc(NC)c3ccccc3n2)CC1

>  <target.entity>
Shiga toxin 2 (Escherichia coli O157:H7) (UniProt P09385+P09386)

>  <unit.label>
%

>  <endpoint.result>
-9.78

$$$$
>  <compound>
Cc1c(F)cc(C(=O)O)cc1S(=O)(=O)Nc1cccc(C(F)F)c1

>  <target.entity>
Shiga toxin 2 (Escherichia coli O157:H7) (UniProt P09385+P09386)

>  <unit.label>
%

>  <endpoint.result>
12.3

$$$$
>  <compound>
CC(C)NC(=O)[C@@H]1C[C@H](N)CN1C(=O)c1cc2ccccc2[nH]c1=O

>  <target.entity>
Shiga toxin 2 (Escherichia coli O157:H7) (UniProt P09385+P09386)

>  <unit.label>
%

>  <endpoint.result>
-0.544

$$$$
>  <compound>
COc1ccc(OCc2cc(C(=O)N3CCN[C@H](C)C3)n[nH]2)c(Cl)c1

>  <target.entity>
Shiga toxin 2 (Escherichia coli O157:H7) (UniProt P09385+P09386)

>  <unit.label>
%

>  <endpoint.result>
-61

$$$$
